- subject_of_test: CquiOBP5 (Culex quinquefasciatus)
- Sequence (C7BDZ9 entry or part of it): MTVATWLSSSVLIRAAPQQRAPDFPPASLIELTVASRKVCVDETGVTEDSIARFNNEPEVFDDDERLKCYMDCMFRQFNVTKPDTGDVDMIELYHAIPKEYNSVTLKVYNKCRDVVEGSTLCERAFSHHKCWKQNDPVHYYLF
- procedure_details: biochemical
- Format: binding
- stated_conditions: CquiOBP5; calculated from IC50 of NPN displacement; read-out: Kd
pKd: −log10 of the molar value.
recorded_endpoint: pKd

                                    compound  reported_result
 0                           Cc1cc(C)cc(O)c1           < 5.15
 1                               CCCCCCCCC=O             5.24
 2           CC1CCC(O)CC1 (stereo not shown)           < 5.15
 3  CC/C=C\CCOC(C)=O [(Z)-3-Hexenyl acetate, (Z)-3-hexenyl acetate]           < 5.15
 4    C=CC(C)(O)CCC=C(C)C (stereo not shown)           < 5.15
 5  CC1CCC(C(C)(C)O)C(O)C1 (stereo not shown)             5.02
 6                                O=C1CCCCC1           < 5.15
 7  CC12CCC(C1)C(C)(C)C2=O (stereo not shown)           < 5.15
 8  CCCCN(CCC(=O)OCC)C(C)=O [IR3535, ethyl 3-[acetyl(butyl)amino]propanoate]           < 5.15
 9  COC(=O)c1ccccc1O [Methyl salicylate, methyl salicylate]           < 5.15
10                              COc1ccccc1OC           < 5.15
11           C=CC(O)CCCCC (stereo not shown)             5.09
12  C=CC1(C)CCC(C(C)(C)O)O1 (stereo not shown) [Linalool oxide, linalool oxide]           < 5.15
13   CC12CCC(CC1=O)C2(C)C (stereo not shown)           < 5.15
14                       C=CCc1ccc(O)c(OC)c1             5.13
15  CC(=O)OC/C=C(\C)CCC=C(C)C [Geranyl acetate, geranyl acetate]           < 5.15
16                         Cc1c[nH]c2ccccc12             5.00
17                            CC(=O)c1ccccc1           < 5.15
18                               OCCc1ccccc1           < 5.15
19                          c1ccc2[nH]ccc2c1           < 5.15
20            CCCCCC(O)CC (stereo not shown)           < 5.15
21           C#CC(O)CCCCC (stereo not shown)             5.05
